B1: Trim5α from Rhesus macaque, Bbox coiled-coil regions, residues 88–296 with the mutation [Rhesus macaque] / autophagy-related protein LC3 B (LC3B), construct 2–119 [not stated] (parent)
chain 1: PEEGQKVDHCARHGEKLLLFCQEDSKVICWLCKDSQEHRGHHTFLMEEVAQEYHVKLQTALEMLRQKQQEAEKLEADIREEKASWKIQIDYDKTNVSADFEQLREILDWEESNELQNLEKEEEDILKSLTKSETEMVQQTQYMRELISELEHRLQGSMMDLLQGVDGIIKRIENMTLKKPKTFHKNQRRVFRAPDLKGMLDMFRELTDA
chain 2: not shown

# Variants of: B1
# Experimental details: SV-AUC c(s) analysis
# Condition info: with autophagy-related protein LC3 B (LC3B), equal concentration of 20 μm, read off a plot
Provide the reported screen value of each item.
One number for each entry, in S.

Would you please look over these solved cases?
chain 1 E105K : 2.7
chain 1 S112A : 3
chain 1 E105A : 2.8
chain 1 E119A : 2.8
chain 1 E110A : 2.8

Please give screen value for each item listed below.
1. chain 1 Q102A
2. chain 1 E119K
3. chain 1 E111K
4. chain 1 Q116A

Reply:
2.9
2.8
2.8
3
